System: U-87 MG
Test: Antiproliferative activity against human U-87 MG assessed as cell viability incubated for 48 hrs by MTT assay
Format: functional, cell-based, U-87MG ATCC
Hi! Just check whether IC50 is below 40 nM. Below gives Fulfilled, equal or above gives Not fulfilled.

>>> df
                                querysmiles  assignedcategory
0  CNC(=O)c1ccccc1Nc1nc(Nc2ccc(N3CCN(CCOC(=O)CCCc4ccc(N(CCCl)CCCl)cc4)CC3)cc2)ncc1Cl     Not fulfilled
1  CNC(=O)c1ccccc1Nc1nc(Nc2ccc(N3CCN(CCOC(=O)CCCc4ccc(N(CCCl)CCCl)cc4)CC3)cc2)ncc1Br         Fulfilled
2  CNC(=O)c1ccccc1Nc1nc(Nc2ccc(N3CCN(CCOC(=O)c4ccc(N(CCCl)CCCl)cc4)CC3)cc2)ncc1C(F)(F)F         Fulfilled
3  CNC(=O)c1ccccc1Nc1nc(Nc2ccc(N3CCN(CCOC(=O)CCCc4ccc(N(CCCl)CCCl)cc4)CC3)cc2)ncc1C     Not fulfilled
4            O=C(O)CCCc1ccc(N(CCCl)CCCl)cc1     Not fulfilled

Take the compound CNC(=O)c1ccccc1Nc1nc(Nc2ccc(N3CCN(C(=O)CCCc4ccc(N(CCCl)CCCl)cc4)CC3)cc2OC)ncc1Cl and say whether its IC50 is less than 40 nM. Not fulfilled

Does the reported IC50 of CNC(=O)c1ccccc1Nc1nc(Nc2ccc(N3CCOCC3)cc2OC)ncc1Cl stay below 40 nM? Not fulfilled

Decide: IC50 of CNC(=O)c1ccccc1Nc1nc(Nc2ccc(N3CCN(C)CC3)cc2)ncc1Cl strictly below 40 nM? Fulfilled
